- Test system: PC-3 prostate
- test: NCI-60 one-dose screen, 48 h (100 = growth as untreated, 0 = no growth, -100 = all killed)
- condition-set: 10 µM
About 83,000 compounds went through this panel and 20% of them were active in at least one assay; those are over-represented in the sample as a whole.
If the reported growth equals or exceeds 30%, assign t. If not, assign f.

Look over these answered cases.
# molecule, cat
measured = [
    ("CC1=C(C=O)C2=C(C)C3(CC3)[C@@](C)(O)C(=O)C2=C1", "f"),
    ("CC(=C\\C(=O)Oc1ccc2c3c1OC1C(O)CCC4(O)C(C2)N(CC2CCC2)CCC314)/C=C1\\CCCc2ccccc21 (stereo unspecified)", "t"),
    ("CCOP(=O)(OCC)C(NC(C)=O)C(=O)SCCN (stereo unspecified)", "t"),
    ("COC(=O)CCn1c(-c2ccc(-n3cc(-c4ccc(O[C@H]5O[C@@H]6OC7(C)CC[C@H]8[C@H](C)CC[C@@H]([C@H]5C)[C@@]68OO7)cc4)nn3)cc2)nc2ccccc21", "f"),
    ("O=C(/C=C/c1ccccc1Cl)c1nc2ccccc2n1Cc1ccc(F)cc1", "f"),
]

Entry CC12OOC(C)(OO1)C2CCC(=O)OCCNc1ccnc2cc(Cl)ccc12 (stereo unspecified) : is its growth no less than 30%?
t

Entry O=C(NC([Se])=NC1CCCCC1)c1ccc2c(c1)OCO2 : is its growth no less than 30%?
t

Entry COc1cc(OC)c(/C=C/C(=O)c2nc3ccccc3n2Cc2ccc(F)cc2)c(OC)c1 : is its growth no less than 30%?
t

Entry CC12OOC(C)(OO1)C2CCC(=O)NCCCNc1ccnc2cc(Cl)ccc12 (stereo unspecified) : is its growth no less than 30%?
t

Entry C[C@H]1[C@H](OC(=O)CCC(=O)N(CCCc2cn(-c3ccc([N+](=O)[O-])cc3)nn2)CCNc2ccnc3cc(Cl)ccc23)O[C@@H]2OC3(C)CC[C@H]4[C@H](C)CC[C@@H]1[C@@]24OO3 : is its growth no less than 30%?
t

Entry O=C([Se]C1C=CCCC1)c1ccc(C(=O)[Se]C2C=CCCC2)s1 (stereo unspecified) : is its growth no less than 30%?
f

Entry CC[C@]12C=CCN3CC[C@@]4(c5ccc(OC)cc5N(C)[C@H]4[C@@](O)(C(=O)OC)[C@@H]1OC(=O)CCC[P+](c1ccc(F)cc1)(c1ccc(F)cc1)c1ccc(F)cc1)[C@@H]32 : is its growth no less than 30%?
f

Entry CCC[Se]C(=O)c1ccc(C(=O)[Se]CCC)s1 : is its growth no less than 30%?
f
